# method: E. coli Tat export inhibitors, primary screen, MC4100, TorA-mCherry reporter, fluorescence, single point (AID 488895);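 note: exported cargo escapes ClpAP degradation while cytoplasmic cargo is degraded and loses fluorescence; 0% = median of neutral control wells and 100% = median of NaSCN control wells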
# run-conditions: at 10 µM, hits give high values
The whole screen tested about 340,000 compounds, of which about 120 (0.035%) were called active. Many of the other results were omitted from the sample, so actives are more common in it than they were.
Measured inhibition, listed per entry.
Numeric answer only, unit % assumed.

Worked set:
# compound, readout-value
rows = [
    ("COc1ccc(Br)cc1/C=N/Nc1ccc(S(=O)(=O)Nc2ccccc2C(=O)O)cc1[N+](=O)[O-]", -2.56),
    ("CCc1c(O)cc2n(c1=O)-c1ccccc1C2(C)C", -2.57),
    ("CC(NC(=O)COc1cccnc1[N+](=O)[O-])c1ccc(Cl)cc1Cl (stereo not given)", -4.49),
]

Recorded result, Cc1noc(C)c1CSCC(=O)Nc1ccc(Br)cc1Cl , inhibition: -0.881

The compound listed as O=C(NCC(=O)N(Cc1cccs1)C(C(=O)NC1CCCCC1)c1ccco1)c1cccs1 (stereo not given) shows inhibition equal to 7.02

* * *

We begin with a simple list: items and their reported inhibition.
# method: E. coli Tat export inhibitors, primary screen, MC4100, TorA-mCherry reporter, fluorescence, single point (AID 488895)
# run-conditions: at 10 µM, hits give high values
The whole screen tested about 340,000 compounds, of which about 120 (0.035%) were called active. This excerpt belongs to a sample that is enriched for actives.
Record the value in %, omitting the unit from your answer.

Some entries whose results are on file:
# molecule, unit, inhibition
data = [
    ("CC1Cc2ccccc2N1C1=CC(=O)CC(C)(C)C1 (centres undefined)", "%", -0.619),
    ("Cc1c(C)c2cc3c4c(oc3c(C)c2oc1=O)CCCC4", "%", -3.36),
    ("Oc1ccccc1-c1cc(-c2ccc(Cl)cc2)n[nH]1", "%", -12.8),
    ("C=CCn1c(SCc2c(C(=O)OC)sc(N)c2C(=O)OC)nnc1-c1ccc(Cl)cc1", "%", 0.305),
]

For this molecule ( O=C(NC(C(=O)NCCN1CCOCC1)C12CC3CC(CC(C3)C1)C2)C1CCCCC1 (centres undefined) ), measured inhibition is 6.49

So for Cn1cc(CN2CCCCC2c2ccccn2)c(-c2ccc3c(c2)OCCO3)n1 (centres undefined) , the logged inhibition turned out to be 3

Recorded inhibition (molecule OC(COc1ccc(F)cc1Cl)CN1CCc2ccccc2C1 (centres undefined) ): 3.62

* * *

# method: E. coli Tat export inhibitors, primary screen, MC4100, TorA-mCherry reporter, fluorescence, single point (AID 488895)
# run-conditions: at 10 µM, hits give high values
About 120 (0.035%) of roughly 340,000 compounds were called active. This excerpt belongs to a sample that is enriched for actives.
measured-quantity: inhibition (%)
Write it as a number; the unit % goes unstated.

# compound, measured-quantity, readout-value
records = [
    ("CCCn1c(SCC(=O)c2ccc3c(c2)OCCO3)nnc1C(C)C", "inhibition", 1.9),
]

The compound CC(C)CC(O)C1CCN(C(=O)CCc2nnc(-c3ccc4c(c3)OCO4)o2)CC1 (configuration not stated) showed inhibition equal to -2.64

Lab note: measured inhibition of CC(C)(C)S(=O)(=O)N1Cc2cc(CO)cc(CCO)c2[C@H]1CCO was -5.8

inhibition in this record for Cc1cc(C(F)F)n2nc(C(=O)Nc3ccc(S(=O)(=O)NC45CC6CC(CC(C6)C4)C5)cc3)nc2n1 : 10.1

* * *

# method: E. coli Tat export inhibitors, primary screen, MC4100, TorA-mCherry reporter, fluorescence, single point (AID 488895);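 note: exported cargo escapes ClpAP degradation while cytoplasmic cargo is degraded and loses fluorescence; 0% = median of neutral control wells and 100% = median of NaSCN control wells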
# run-conditions: at 10 µM, hits give high values
In all, about 340,000 compounds went through this assay and about 120 (0.035%) were called active. The full list was thinned out, with actives kept by preference.
measured-quantity: inhibition (%)
Kindly provide the numeric value in % only, without the unit symbol.

Observe how each entry below is paired with its result.
# compound, inhibition [%]
records = [
    ("CCC(C)Sc1nc(C)nc2c1c(=O)n(C)c(=O)n2C (stereo unspecified)", -2.92),
    ("CC(CCN1CCN=C1N(C)C)c1ccccc1 (stereo unspecified)", 1.28),
    ("CCn1ccnc1CN(C)C(=O)c1ccc2nc(Cc3ccc(OC)cc3)oc2c1", -0.56),
    ("COCCN1C(=O)C(=O)/C(=C(/O)c2ccc(S(=O)(=O)N3CCCCC3)cc2)C1c1ccc(OC)c(OC)c1 (stereo unspecified)", -4.83),
]

inhibition for CC(=O)Nc1ccc(OCCC[n+]2cccc(C(=O)[O-])c2)cc1 is 0.863

Input Cc1cc(S(=O)(=O)NCc2ccccn2)c(Cl)cc1Cl . Output inhibition: -16.8

Measured inhibition of COc1cc(C2OC(c3cc(OC)c(OC)c(OC)c3)C(C)C2C)cc(OC)c1OC (stereo unspecified) : -3.59

Sample CC1CCN(C(=S)NC2CC3CCC2C3)CC1 (stereo unspecified) ; inhibition observed: -4.26

So, CC(N)C12CC3CC(CC(O)(C3)C1)C2 (stereo unspecified) ? Its inhibition was -2.5

Measured inhibition, O=P(O)(CP(=O)(c1ccccc1)c1ccccc1)c1ccccc1O : -10.9

Looking up CNC(=O)c1nnc(Cc2ccc(Cl)cc2)o1 , I see its inhibition listed as -1.7

* * *

# method: E. coli Tat export inhibitors, primary screen, MC4100, TorA-mCherry reporter, fluorescence, single point (AID 488895);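 note: exported cargo escapes ClpAP degradation while cytoplasmic cargo is degraded and loses fluorescence; 0% = median of neutral control wells and 100% = median of NaSCN control wells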
# run-conditions: at 10 µM, hits give high values
In all, about 340,000 compounds went through this assay and about 120 (0.035%) were called active. The list comes from a sample in which actives are over-represented; it also holds close analogues and randomly drawn compounds.
measured-quantity: inhibition (%)
Respond numerically; units are % and should not be typed.

Below: 3 compounds and their reported inhibition.
# compound, unit, inhibition
records = [
    ("O=C(NCc1ccco1)c1ccc(NS(=O)(=O)c2cccc([N+](=O)[O-])c2)cc1", "%", -12.7),
    ("O=C(COC(=O)c1ccc(N2CCCC2=O)cc1)c1ccc(OC(F)F)cc1", "%", 6.18),
    ("CC(C#N)OC(=O)c1cccnc1SCC(=O)Nc1ccc2c(c1)OCO2 (stereo not given)", "%", -6.97),
]

Per the records, this compound ( COc1ccc2c3c1O[C@H]1C[C@@H](O)C=C[C@@]31CCN(C)C2 ) has inhibition equal to -6.89

Reported inhibition for CC(=O)NC(=S)NNC(=O)c1ccc(Br)cc1 was 10.8

* * *

Overview of reported inhibition across a group of molecules:
# method: E. coli Tat export inhibitors, primary screen, MC4100, TorA-mCherry reporter, fluorescence, single point (AID 488895);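 note: exported cargo escapes ClpAP degradation while cytoplasmic cargo is degraded and loses fluorescence; 0% = median of neutral control wells and 100% = median of NaSCN control wells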
# run-conditions: at 10 µM, hits give high values
Hit rate of the full screen: of about 340,000 compounds, about 120 (0.035%) were called active. For the sample, actives were picked, then their nearest neighbours and some compounds at random.
// units = %; emit number, no label

# molecule, inhibition [%]
measured = [
    ("COc1ccc(NC(=O)CSc2nc(NS(=O)(=O)c3ccc(C)cc3)cc(=O)[nH]2)cc1", 0.509),
    ("COC(=O)C1CCN(CC(N)=O)CC1", -3.53),
    ("CCC(=O)N1c2ccccc2NC2=C(C(=O)CCC2)C1c1ccco1 (centres undefined)", -4.89),
    ("Cn1c(SCC(=O)NC2CCCCC2)nnc1-c1cc2ccccc2o1", 1.56),
    ("O=C1OCC2=C1C(c1ccc(Cl)cc1)c1cc3c(cc1O2)OCO3 (centres undefined)", 2.92),
    ("CCCCNC(=O)c1cn(CC)c2cc(N3CCN(C(=O)c4ccco4)CC3)c(F)cc2c1=O", -4.43),
]

Note to self: inhibition recorded for CCC(C)(C(=O)NC1CCCCC1)N(C)C(=O)c1ccc2c(c1)OCO2 (centres undefined) was 4.87

The molecule listed as O=C(NCCCN1CCN(c2ccc(F)cc2)CC1)Nc1ccc([N+](=O)[O-])cc1 has a reported inhibition of 10.8

For record Cc1cc(C)c(OCCN2CC(C)OC(C)C2)c(Br)c1 (centres undefined) the listed inhibition is 24.1

Measured inhibition, CCCOc1ccc2c3c(c(=O)oc2c1OCCC)CCC3 : 14.7

For record COC(CCN(C)C)(c1ccccc1)c1ccccc1 the listed inhibition is -2.82

The recorded inhibition for entry Cc1ccc(CSCC2Nc3ccc(C(=O)N4CCN(c5ccc(F)cc5)CC4)cc3NC2=O)cc1 (centres undefined) equals -4.6

For COc1ccccc1CNS(=O)(=O)c1c(C)[nH]c(C)c1C(=O)N1CCCCC1 the molecule record lists inhibition as -2.57

Recorded result, O=S(=O)(c1ccc(F)cc1)n1ccc(-c2cnc(-c3ccccc3)s2)n1 , inhibition: 1.96

Just so you know, measured inhibition for COc1ccc(N(CC(=O)NCc2ccc(F)cc2)C(=O)CCC(=O)Nc2nccs2)cc1 came out at 2.29
